Structures can show the parent of a compound that is named as a salt.
EXPERIMENTAL_ENDPOINT: melting point

Use these answered entries as a reference point.
Cc1cc(F)ccc1[C@H]1CN(CC(N)=O)CC[C@@H]1C(=O)N(C)[C@@H](C)c1cc(C(F)(F)F)cc(C(F)(F)F)c1 : 161 to 164 °C
Cc1cc(F)ccc1[C@@H]1CN(CC(N)=O)CC[C@H]1C(=O)N(C)Cc1cc(C(F)(F)F)cc(C(F)(F)F)c1 (relative stereo) (as salt: hydrochloride) (hydrate or solvate) [Example 112, monohydrochloride] : 175 to 177 °C
Cc1cc(F)ccc1[C@@H]1CN(C2CCN(C(=O)C(N)=O)CC2)CC[C@H]1C(=O)N(C)Cc1cc(C(F)(F)F)cc(C(F)(F)F)c1 (relative stereo) (as salt: hydrochloride) (hydrate or solvate) [Example 108, monohydrochloride] : 175 to 176 °C
Cc1cc(F)ccc1[C@H]1CN(CC(N)=O)CC[C@@H]1C(=O)N(C)[C@H](C)c1cc(C(F)(F)F)cc(C(F)(F)F)c1.Cl (hydrate or solvate) : 133 to 139 °C

Alright, here's another compound for you.
// melting point value for Cc1cc(F)ccc1[C@H]1CN(C(=O)C2CCN(C(=O)CO)CC2)CC[C@@H]1C(=O)N(C)[C@@H](C)c1cc(C(F)(F)F)cc(C(F)(F)F)c1 (hydrate or solvate) : 108 to 116 °C

====

Catalogue of IC50 readings, one per entry.
Target: substance P receptor (Homo sapiens, UniProt P25103)
Construct: The receptor was prepared from human lymphoblast cells (IM-9); endogenous in cells; host or cells: IM-9 human lymphoblast cells (membrane fraction, 100,000xG precipitate)
Sequence (P25103 whole entry): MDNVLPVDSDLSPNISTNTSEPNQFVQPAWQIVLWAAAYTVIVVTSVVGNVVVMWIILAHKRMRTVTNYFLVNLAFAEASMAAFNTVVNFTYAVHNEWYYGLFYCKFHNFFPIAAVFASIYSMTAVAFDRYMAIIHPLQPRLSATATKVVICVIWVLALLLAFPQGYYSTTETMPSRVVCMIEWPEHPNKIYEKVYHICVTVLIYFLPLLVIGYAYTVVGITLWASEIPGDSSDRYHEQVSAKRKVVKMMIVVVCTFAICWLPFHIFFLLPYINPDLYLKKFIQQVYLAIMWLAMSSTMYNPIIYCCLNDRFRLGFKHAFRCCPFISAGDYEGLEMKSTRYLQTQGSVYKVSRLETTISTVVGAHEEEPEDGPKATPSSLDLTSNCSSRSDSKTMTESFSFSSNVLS
Assay: Radioligand receptor binding inhibitory activity (125I-BHSP binding, receptor from IM-9 cells)
Conditions: receptor from human lymphoblast cells (IM-9); radioligand 125I-BHSP; 25° C., 30 min
Counter-ions that a name gives are not always drawn.
# value in nM; strip the unit string

Cc1cc(F)ccc1[C@H]1CN(CC(N)=O)CC[C@@H]1C(=O)N(C)[C@@H](C)c1cc(C(F)(F)F)cc(C(F)(F)F)c1 : 0.024
Cc1cc(F)ccc1[C@H]1CN(CCS(C)(=O)=O)CC[C@@H]1C(=O)N(C)[C@@H](C)c1cc(C(F)(F)F)cc(C(F)(F)F)c1 [Example 180, monohydrochloride] : 0.023
Cc1ccccc1[C@H]1CN(C(=O)C2CCN(C(=O)[C@H](C)O)CC2)CC[C@@H]1C(=O)N(C)Cc1cc(C(F)(F)F)cc(C(F)(F)F)c1 : 0.022

// IC50 value for Cc1cc(F)ccc1[C@H]1CN(C(=O)C(N)=O)CC[C@@H]1C(=O)N(C)[C@@H](C)c1cc(C(F)(F)F)cc(C(F)(F)F)c1 : 0.017

// IC50 value for Cc1cc(F)ccc1[C@H]1CN(S(C)(=O)=O)CC[C@@H]1C(=O)N(C)[C@@H](C)c1cc(C(F)(F)F)cc(C(F)(F)F)c1 : 0.049

// IC50 value for Cc1cc(F)ccc1[C@@H]1CN(C(C)CO)CC[C@H]1C(=O)N(C)Cc1cc(C(F)(F)F)cc(C(F)(F)F)c1 (relative stereo) [Example 120, monohydrochloride] : 0.043

// IC50 value for Cc1cc(F)ccc1[C@@H]1CN(S(=O)(=O)CCN2CCOCC2)CC[C@H]1C(=O)N(C)Cc1cc(C(F)(F)F)cc(C(F)(F)F)c1 (relative stereo) [Example 139, monohydrochloride] : 0.037
